target: KRAS G12C::SOS1 (Homo sapiens); construct: purchased CISBIO 64KRASG12PEH; experiment: KRAS G12C::SOS1 protein-protein interaction (PPI) inhibition assay (HTRF); format: binding; settings: 8 concentrations from 3 µM, three replicates; read-out: KRAS G12C::SOS1 PPI
Sequence (Q07889 whole entry, stated change not applied): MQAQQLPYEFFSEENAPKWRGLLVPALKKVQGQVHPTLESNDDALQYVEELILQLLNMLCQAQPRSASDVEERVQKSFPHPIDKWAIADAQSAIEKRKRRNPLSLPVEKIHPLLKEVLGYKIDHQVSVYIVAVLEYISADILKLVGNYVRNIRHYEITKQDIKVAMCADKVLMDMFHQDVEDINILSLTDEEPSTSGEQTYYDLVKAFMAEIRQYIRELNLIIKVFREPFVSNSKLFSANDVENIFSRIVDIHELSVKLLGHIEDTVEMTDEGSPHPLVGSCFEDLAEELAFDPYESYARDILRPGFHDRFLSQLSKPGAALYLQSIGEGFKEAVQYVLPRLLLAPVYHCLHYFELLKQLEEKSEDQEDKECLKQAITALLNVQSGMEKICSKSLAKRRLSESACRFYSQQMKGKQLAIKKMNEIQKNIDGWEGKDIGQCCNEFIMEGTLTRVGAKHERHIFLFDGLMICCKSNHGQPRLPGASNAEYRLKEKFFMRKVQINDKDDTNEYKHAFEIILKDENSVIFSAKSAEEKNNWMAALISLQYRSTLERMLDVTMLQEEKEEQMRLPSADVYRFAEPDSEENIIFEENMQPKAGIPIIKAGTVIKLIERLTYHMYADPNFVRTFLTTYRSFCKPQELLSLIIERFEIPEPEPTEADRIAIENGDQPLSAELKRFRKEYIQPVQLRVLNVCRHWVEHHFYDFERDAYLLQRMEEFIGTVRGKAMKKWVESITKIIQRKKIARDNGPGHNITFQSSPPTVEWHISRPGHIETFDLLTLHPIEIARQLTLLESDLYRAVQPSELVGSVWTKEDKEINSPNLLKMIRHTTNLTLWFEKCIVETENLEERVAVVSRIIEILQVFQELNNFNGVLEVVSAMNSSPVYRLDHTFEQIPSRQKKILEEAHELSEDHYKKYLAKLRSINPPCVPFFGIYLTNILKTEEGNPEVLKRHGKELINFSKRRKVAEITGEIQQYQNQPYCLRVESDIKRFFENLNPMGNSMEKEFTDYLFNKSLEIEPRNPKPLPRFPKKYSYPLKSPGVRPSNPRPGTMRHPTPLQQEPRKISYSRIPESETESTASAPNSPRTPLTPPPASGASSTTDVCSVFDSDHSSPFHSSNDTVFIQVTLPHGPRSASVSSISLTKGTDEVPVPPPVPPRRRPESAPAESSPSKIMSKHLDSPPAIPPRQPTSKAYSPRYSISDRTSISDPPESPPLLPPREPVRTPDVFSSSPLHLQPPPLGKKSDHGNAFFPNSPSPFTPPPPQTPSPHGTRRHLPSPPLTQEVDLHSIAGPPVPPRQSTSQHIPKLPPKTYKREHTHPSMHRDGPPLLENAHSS
measured endpoint: IC50

COCC(F)(F)c1cccc([C@@H](C)NC(=O)c2ccc(=O)n(-c3cncc(-c4cnnn4C)c3)n2)c1F
50 to 150 nM
C[C@@H](NC(=O)c1ccc(=O)n(-c2cncc(-c3cnnn3CCO)c2)n1)c1cccc(C(F)(F)F)c1F
50 to 150 nM

Would you mind giving IC50 for every compound in the list below?
1. Cc1cc(C(=O)N[C@H](C)c2cc(N)cc(C(F)F)c2)nn(-c2cncc(-c3cnnn3C)c2)c1=O
2. [2H]C([2H])([2H])[C@@H](NC(=O)c1ccc(=O)n(-c2cncc(-c3cnnn3C3CC3)c2)n1)c1cccc(C(F)(F)CO)c1F

Reply:
["< 50 nM", "< 50 nM"]

Where do the numbers come from? From patent EP4667464A1.
